Please go through the items and note down their IC50.
# Test target: TNIK (Homo sapiens (Human), UniProt Q9UKE5)
# Sequence (Q9UKE5 whole entry): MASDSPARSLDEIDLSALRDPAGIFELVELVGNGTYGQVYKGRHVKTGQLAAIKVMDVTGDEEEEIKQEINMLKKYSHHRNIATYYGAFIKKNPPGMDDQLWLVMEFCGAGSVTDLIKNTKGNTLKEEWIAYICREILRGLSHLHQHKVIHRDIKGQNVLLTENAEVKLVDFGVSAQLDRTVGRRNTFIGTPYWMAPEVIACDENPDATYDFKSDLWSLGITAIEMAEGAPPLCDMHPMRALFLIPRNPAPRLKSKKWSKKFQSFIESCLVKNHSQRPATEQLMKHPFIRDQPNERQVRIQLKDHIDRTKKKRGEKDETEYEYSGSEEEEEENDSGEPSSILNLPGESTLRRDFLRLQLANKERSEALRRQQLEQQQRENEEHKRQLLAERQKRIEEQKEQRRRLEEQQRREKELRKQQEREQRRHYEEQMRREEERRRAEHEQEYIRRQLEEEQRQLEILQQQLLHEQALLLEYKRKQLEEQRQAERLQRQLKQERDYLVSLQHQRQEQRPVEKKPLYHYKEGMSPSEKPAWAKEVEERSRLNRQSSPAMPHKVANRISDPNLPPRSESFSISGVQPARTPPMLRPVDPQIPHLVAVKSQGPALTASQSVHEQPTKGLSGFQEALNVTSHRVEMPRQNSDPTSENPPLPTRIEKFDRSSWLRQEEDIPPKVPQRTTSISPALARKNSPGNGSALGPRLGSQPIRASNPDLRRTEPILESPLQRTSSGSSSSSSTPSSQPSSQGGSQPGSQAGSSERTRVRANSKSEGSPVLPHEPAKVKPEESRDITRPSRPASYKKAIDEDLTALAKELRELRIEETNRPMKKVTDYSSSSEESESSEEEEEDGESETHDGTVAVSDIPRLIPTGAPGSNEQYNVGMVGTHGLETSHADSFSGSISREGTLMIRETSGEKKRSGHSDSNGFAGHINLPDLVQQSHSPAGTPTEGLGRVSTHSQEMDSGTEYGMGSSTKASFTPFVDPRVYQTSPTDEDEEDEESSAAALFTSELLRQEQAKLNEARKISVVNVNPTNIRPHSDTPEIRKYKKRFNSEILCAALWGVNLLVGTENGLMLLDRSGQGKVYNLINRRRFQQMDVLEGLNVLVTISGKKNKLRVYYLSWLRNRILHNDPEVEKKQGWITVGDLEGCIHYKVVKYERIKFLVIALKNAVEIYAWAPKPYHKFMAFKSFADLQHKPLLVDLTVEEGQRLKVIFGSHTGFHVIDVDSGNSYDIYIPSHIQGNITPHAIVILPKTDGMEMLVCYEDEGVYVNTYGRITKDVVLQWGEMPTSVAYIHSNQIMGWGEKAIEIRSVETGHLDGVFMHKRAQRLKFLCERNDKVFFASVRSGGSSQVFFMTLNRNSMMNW
# Assay remarks: TNIK enzymatic assay (radiometric kinase inhibition)
# Format: biochemical
# Run parameters: TNIK enzymatic assay, Table 1; read-out: IC50
# Experimental: The compounds were studied for function as TNIK inhibitors to generate the data of Table 1. […] (specific activity and concentration as required). The reaction is initiated by the addition of the Mg/ATP mix. After incubation for 40 minutes at room temperature, the reaction is stopped by the addition of phosphoric acid to a concentration of 0.5%.

Which value of IC50 has been reported for CCc1cccc(NC(=O)c2ccc(-c3c(-c4ccc(F)cc4)ncn3C3CCCCC3)o2)c1 [Compound 74] in the records?
326 nM

Which value of IC50 has been reported for Cc1ccccc1NC(=O)c1ccc(-c2c(-c3ccc(F)cc3)ncn2C2CCCC2)o1 [Compound 29] in the records?
62 nM

Which value of IC50 has been reported for Cc1ccc(-c2ncn(C3CCCCC3)c2-c2ccc(C(=O)Nc3ccccc3F)o2)cc1 [Compound 7] in the records?
1510 nM

Which value of IC50 has been reported for COc1ccc(NC(=O)c2ccc(-c3c(-c4ccc(F)cc4)ncn3C3CCCC3)o2)cc1OC [Compound 11] in the records?
42 nM
